- Experimental Conditions: 303.15 K; 101.33 kPa; Liquid; Vibrating tube method
Measured Parameter: mass density (kg/m3)
One number for each entry, in kg/m3.

| Molecule | Unit Tag | mass density |
| --- | --- | --- |
| CCCCCCCC(=O)[O-].CCCCCCCCCCCCCC[P+](CCCCCC)(CCCCCC)CCCCCC [trihexyl(tetradecyl)phosphonium octanoate] | kg/m3 | 878.4 |
| CC(=O)[O-].CCCCCCCCCCCCCC[P+](CCCCCC)(CCCCCC)CCCCCC [trihexyl(tetradecyl)phosphonium acetate] | kg/m3 | 891.5 |
| CCCC(=O)[O-].CCCCCCCCCCCCCC[P+](CCCCCC)(CCCCCC)CCCCCC [trihexyl(tetradecyl)phosphonium butyrate] | kg/m3 | 887.8 |
| CCCCCCCCCC(=O)[O-].CCCCCCCCCCCCCC[P+](CCCCCC)(CCCCCC)CCCCCC [trihexyltetradecylphosphonium decanoate] | kg/m3 | 874.6 |

Now for another entry.
Incoming: What does the data say about its mass density? Entry: CCCCCC(=O)[O-].CCCCCCCCCCCCCC[P+](CCCCCC)(CCCCCC)CCCCCC [trihexyl(tetradecyl)phosphonium hexanoate]
Outgoing: 882.3

// data source = the NIST ThermoML archive (doi:10.1016/j.jct.2018.02.013)
